- Experimental system: DRB1*03:01 (Homo sapiens, UniProt P01903+P01911, A100K/A102G/A103R/A169T/F55Y/I96L/K41T/L162R/M171V/P40S/Q125H/Q178H/Q39Y/R42S/S66N/T106N/T262R/W38E/Y61H)
- Construct: purchased ProImmune
- Assay remarks: REVEAL HLA-Peptide binding assay (ProImmune)
- Test settings: after 24 hours (H24); score relative to high-affinity control peptide, percentage of the control signal
Property label: DRB1*03:01
Record the result as a number with its unit.

Worked cases, DRB1*03:01 given:
VNSLDPPLTTRYLRI [Design M-2, peptide covering L2321T] ... 0.000%
YTRYLRIHPQSWEHQ [Design M-12, peptide covering L2321Y, V2333E] ... 0.200%
VNSLDPPLLTRYLRI [WT-1, wild-type peptide of Factor VIII C2 domain, reference compound] ... 0.000%
FTRYLRIHPQSWEHQ [Design M-10, peptide covering L2321F, V2333E] ... 0.000%
LTRYLRIHPQSWVHQ [WT-3, wild-type peptide of Factor VIII C2 domain, reference compound] ... 0.243%
LRIHPQSWVHQIALRM [WT-4, wild-type peptide of Factor VIII C2 domain, reference compound] ... 0.021%
TTRYLRIHPQSWEHQ [Design M-11, peptide covering L2321T, V2333E] ... 0.000%
RIHPQSWVHQIALRM [WT-2, wild-type peptide of Factor VIII C2 domain, reference compound] ... 0.000%

Could you tell me which DRB1*03:01 is on file for VNSLDPPLYTRYLRI [Design M-3, peptide covering L2321Y] ? 0.000%

Hey, just so you know, these numbers are from paper PMC5851651.
